The values you see were collected from PubChem BioAssay AID1851.

- Study system: Cytochrome P450 2D6 (Homo sapiens) (UniProt P10635)
- Sequence (P10635 whole entry, looked up): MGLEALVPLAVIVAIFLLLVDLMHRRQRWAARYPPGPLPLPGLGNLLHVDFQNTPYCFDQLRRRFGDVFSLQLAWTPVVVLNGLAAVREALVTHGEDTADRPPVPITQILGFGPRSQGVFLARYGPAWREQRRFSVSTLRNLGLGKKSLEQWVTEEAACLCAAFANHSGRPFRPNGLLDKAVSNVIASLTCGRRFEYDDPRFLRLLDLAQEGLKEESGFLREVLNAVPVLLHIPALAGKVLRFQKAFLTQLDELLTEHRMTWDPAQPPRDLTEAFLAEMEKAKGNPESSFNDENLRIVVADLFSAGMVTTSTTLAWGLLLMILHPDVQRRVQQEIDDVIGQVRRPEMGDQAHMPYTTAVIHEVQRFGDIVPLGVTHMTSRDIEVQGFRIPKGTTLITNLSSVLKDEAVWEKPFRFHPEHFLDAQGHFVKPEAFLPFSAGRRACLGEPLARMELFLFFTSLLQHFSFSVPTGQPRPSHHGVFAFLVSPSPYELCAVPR
- Test description: Cytochrome panel assay with activity outcomes; further: on the % scale 0 is the no-effect control and ±100 the full control effect
- Cond: recombinant CYP, pro-luciferin dealkylation, luminescence, p450-cyp2d6; series mostly up to 57.1 µM
About 2,600 (16%) of roughly 16,000 compounds were called active. Roughly 20% stayed inconclusive and do not appear here. A selection follows.
Provide the reported activity, negative = inhibition of each item.

Worked cases, activity, negative = inhibition given:
>  <Smiles str>
c1ccc(NN(Cc2cnccn2)c2ccccc2)cc1

>  <Study system>
Cytochrome P450 2D6 (Homo sapiens) (UniProt P10635)

>  <Readout type>
activity, negative = inhibition

>  <Test value>
-16.2% [at 11.4 µM] (inactive)

$$$$
>  <Smiles str>
C[C@H]1CC[C@H]2C(=O)N[C@H](Cc3ccccc3)C(=O)N2[C@@H]1c1ccccc1

>  <Study system>
Cytochrome P450 2D6 (Homo sapiens) (UniProt P10635)

>  <Readout type>
activity, negative = inhibition

>  <Test value>
-17.6% [at 11.4 µM] (inactive)

$$$$

Provide activity, negative = inhibition for all items below, preserving their order.
1. CC(C)=CCC/C(C)=C/CO/N=C1/C[C@@H](O)[C@@H](O)[C@@H]2[C@@H]3C(=O)N(C4CCCCC4)C(=O)[C@H]3CC[C@H]12
2. COC(=O)/C=C\CCc1coc(/C=C\CNC(=O)OC)n1
3. COc1ccc(/C=C(\C#N)C(N)=O)c(OC)c1

[A]
["-9.81% [at 11.4 µM] (inactive)", "8.58% [at 11.4 µM] (inactive)", "-4.62% [at 11.4 µM] (inactive)"]
